System: MCF7
protocolText: Inhibition of breast MCF-7 cell proliferation
Assay type: functional
condition: Homo sapiens, read-out: ED50 (the source's name)
Listed below: EC50 values for each entry.
observedProperty: EC50 (µg/mL)

COc1cc2c3c(cc[n+](C)c3c1OC)N(C)C=C2.[I-] : 4.9
COc1cc2c3c(cc[n+](Cc4ccccc4)c3c1OC)N(Cc1ccccc1)C=C2.[Cl-] : 0.27
COc1ccc(CN2C=Cc3cc(OC)c(OC)c4nccc2c34)cc1.Cl : 8

* * *

systemUnderTest: Protein kinase C alpha type (Homo sapiens) (UniProt P17252)
protocolText: Displacement of [20-3H]-phorbol 12,13-dibutyrate from protein kinase C alpha at […]
condition: concentration not given here
observedProperty: inhibition (%)

COc1cc2c3c(ccnc3c1OC)N(Cc1ccccc1)C=C2.Cl : 6.4
COc1ccc(C[n+]2ccc3c4c(cc(OC)c(OC)c42)C=CN3Cc2cc(OC)c(OC)c(OC)c2)cc1O.[Br-] : 16
COc1ccc(CN2C=Cc3cc(OC)c(OC)c4nccc2c34)cc1.Cl : 9.2
COc1cc2c3c(cc[n+](Cc4ccccc4)c3c1OC)N(Cc1ccccc1)C=C2.[Cl-] : 11.8

Origin of values: ChEMBL document CHEMBL1149123
